# System: Daphnia magna
# assay-protocol: Acute toxicity assay against Daphnia magna
# conditions: 1 μM, 24 h exposure
# Description: The general toxicity of the tested compounds was evaluated using Daphnia magna (Straus, 1820). Daphnia magna was originated from a culture maintained parthenogenetically at the Institute of Zoology (Laboratory of Systematics and Molecular Phylogeny). The test design was based on ISO 6341 : 2012. The test-organisms Daphnia magna Straus were fed with Chlorella vulgaris. […] The percentage of viability (V (%)) of Daphnia magna was calculated according to the formula:(1) V%=Nsample/Ncontrol×100. […]
Overview of recorded V, (%) percentage of viability of Daphnia magna for various compounds
recorded-metric: V, (%) percentage of viability of Daphnia magna

compound	result
C=CCNC(=NN=Cc1ccccn1)[S][Cu][O]C(C)=O.C=CCNC(=NN=Cc1ccccn1)[S][Cu][O]C(C)=O.O.O.O.O [compound 4, [Cu2(L)2(CH3COO)2]·4H2O]	66.7 ± 7.3%
C=CCNC(=NN=Cc1ccccn1)[S][Cu][Cl] [compound 2, [Cu(L)Cl]]	97.4 ± 7.3%
C=CCNC(=NN=Cc1ccccn1)[S][Cu][Br] [compound 3, [Cu(L)Br]]	97.4 ± 7.3%
C=CCNC([S-])=NN=Cc1ccccn1.C=CCNC([S-])=NN=Cc1ccccn1.[Cl-].[Co+3] [compound 6, [Co(L)2]Cl]	97.4 ± 7.3%
C=CCNC(=S)NN=Cc1ccccn1.C=CCNC(=S)NN=Cc1ccccn1.O.[Cl-].[Cl-].[Ni+2] [compound 5, [Ni(HL)2]Cl2·H2O]	102.6 ± 0.0%
